assay: in vitro; details: human, hela cells, % viability
Provide the recorded viability at 28.5 h, 10 µM for the entries that follow.
Answers are plain numbers, in %.

Field: example entries. Status: answers known.
>>> test_result("Cn1cc(C2CCCCCN2S(=O)(=O)c2ccc3[nH]c(=O)[nH]c(=O)c3c2)cn1 (stereo not drawn) [CBK286406]")
103
>>> test_result("COC(=O)c1ccc(Cl)cc1N(Cc1c(F)cccc1Cl)S(C)(=O)=O [CBK021351]")
85.3
>>> test_result("COc1ccc(OC)c(NC(=O)c2c(NCc3ccncc3)sc3c2CCC3)c1 [CBK266007]")
90.1
>>> test_result("O=C(COc1ccc(S(=O)(=O)N2CCCCC2)cc1Cl)N1CCc2ccccc2C1 [CBK269510]")
88
>>> test_result("CC[C@H]1CN(S(C)(=O)=O)CC[C@H]1CC(=O)NCc1ccco1 [CBK289141]")
89.2

Would you mind giving viability at 28.5 h, 10 µM for every molecule in the list below?
1. COCCOCC(C)NC(=O)COc1nn(C)c2nc(C)cc(C)c12 (stereo not drawn) [CBK305177]
2. COc1cccc2cc(C(=O)NC3CC3)oc12 [CBK149813]
3. CCN(CC(=O)Nc1ccc(OC)c(Cl)c1)S(=O)(=O)c1ccc2ccccc2c1 [CBK267910]
4. CC(C)(C)C1=CC2=NC3(CCCCCCC3)[C@@H]3C[C@@H](O)[C@@H](O)[C@@H]3N2O1 [CBK303256]
5. CNC(=O)c1ccc(-c2ccc(C)c(C)c2)nc1NCCOC [CBK105999]
6. Cc1cc(O)n(-c2cc(-c3ccccc3)nc(-c3ccccc3)n2)n1 [CBK262014]
7. CCN(CC)c1ccc(C(=O)Cn2c(=O)n(S(=O)(=O)c3ccc4ccccc4c3)c3ccccc32)cc1 [CBK106505]

Result:
[105, 97.8, 92.9, 113, 96.6, 95.5, 88.9]

Value sought for every listed molecule: viability at 28.5 h, 10 µM.
1. O=C1CCC(=O)N1CC(O)Cn1c2ccc(Cl)cc2c2cc(Cl)ccc21 (stereo not drawn) [CBK262222]
2. Cc1cc(C)nc(NC(=O)C2C3C=CC(C3)C2C(=O)O)c1 (stereo not drawn) [CBK058843]
3. Cc1cccn2c(=O)c(/C=C3\SC(=S)N(CC4CCCO4)C3=O)c(NCCCn3ccnc3)nc12 (stereo not drawn) [CBK263825]
4. Cc1cccc(Cn2nc(C)c(NC(=O)c3ccncc3)c2C)c1 [CBK270126]
5. NS(=O)(=O)c1ccc(CNC(=O)C2(c3ccccc3)CCCC2)cc1 [CBK161523]
6. COc1c(Cl)cc(Cl)cc1CNC1CCCc2c1cnn2C (stereo not drawn) [CBK304305C]

Result:
90.5
104
119
97.2
101
90.6
